# Tested on: 435261-313-R-J1-PDC tumor spheroid viability;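 note: spheroids exposed to compounds for 7 days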
# Experiment Notes: Anticancer human tumor 435261-313-R-J1-PDC patient-derived colon adenocarcinoma cell line growth inhibition [PI3K]
# Condition: second compound 0.0316 µM; first compound 0.1 µM; hits give low values; spheroids with HUVEC and MSC
Assay Readout: viability, T/C (%)
Numbers only here, please. The scale is %.

Reference set, count: 5
Cn1nccc1Nc1nccc(-c2ccn(C(CO)c3ccc(Cl)c(F)c3)c(=O)c2)n1 (stereo unspecified) + COc1c(OCCCN2CCOCC2)ccc2c3n(c(=NC(=O)c4cnc(N)nc4)nc12)CCN3: 28.7
CCN1CCN(Cc2ccc(Nc3ncc(F)c(-c4cc(F)c5nc(C)n(C(C)C)c5c4)n3)nc2)CC1 + COc1c(OCCCN2CCOCC2)ccc2c3n(c(=NC(=O)c4cnc(N)nc4)nc12)CCN3: 23.3
CC(Cn1ccc(-c2ccc(C#N)c(Cl)c2)n1)NC(=O)c1cc(C(C)O)[nH]n1 (stereo unspecified) + CC(Nc1ncnc2nc[nH]c12)c1cc2cccc(Cl)c2c(=O)n1-c1ccccc1: 96.2
Cn1ncnc1[C@H]1c2n[nH]c(=O)c3cc(F)cc(c23)N[C@@H]1c1ccc(F)cc1 + CC(Nc1ncnc2nc[nH]c12)c1cc2cccc(Cl)c2c(=O)n1-c1ccccc1: 53.5
Cn1nccc1Nc1nccc(-c2ccn(C(CO)c3ccc(Cl)c(F)c3)c(=O)c2)n1 (stereo unspecified) + CC(Nc1ccc2c(c1)OCCn1cc(N3C(=O)OCC3C(F)F)nc1-2)C(N)=O: 52.1

Consider the record given below.
// query viability, T/C value for entry CC(=O)c1c(C)c2cnc(Nc3ccc(N4CCNCC4)cn3)nc2n(C2CCCC2)c1=O + CC(Nc1ncnc2nc[nH]c12)c1cc2cccc(Cl)c2c(=O)n1-c1ccccc1
84.1
